Details: in THF, 283.15 K
Readout Name: solubility (mole fraction)

Notebook: `Cc1c(C(=O)c2c[nH]n(C)c2=O)ccc(S(C)(=O)=O)c1C1=NOCC1` , solubility (mole fraction) read as 0.00274

====

Conditions: in methanol, 323.15 K
Readout Name: solubility (mole fraction)
Answer with a number only.

For this compound ( `Cc1c(C(=O)c2c[nH]n(C)c2=O)ccc(S(C)(=O)=O)c1C1=NOCC1` ), measured solubility (mole fraction) is 0.000799

====

Conditions: in n-butyl acetate, 303.15 K
Readout Name: solubility (mole fraction)
Provide a numeric answer; units are not to be included.

Measured solubility (mole fraction), `Cc1c(C(=O)c2c[nH]n(C)c2=O)ccc(S(C)(=O)=O)c1C1=NOCC1` : 0.00069
